# System: SF-539 CNS
# protocol: NCI tumour cell line growth inhibition, 48 h; in the data active = GI50 below about 0.43 µM; inactive = the rest
Pick one: y = active, n = inactive

Test call for this molecule, please: `COc1ccc(-c2cn[nH]c2-c2cc(OC)c3c(c2)OCCO3)cc1`
y

Test call for this molecule, please: C[C@]12CC[C@@H]3c4ccc(O)cc4C(O)C[C@H]3[C@@H]1CCC2=O (stereo partly drawn)
n

Test call for this molecule, please: COc1ccc(C2CC(n3nnnc3-c3ccccc3)=NN2)cc1 (stereo not drawn)
n

Test call for this molecule, please: `COc1cc(/C=C2/N=C(c3ccccc3)N(C3=NNC4(C(=O)N3)c3ccccc3-c3ccccc34)NC2=O)ccc1O`
n

Test call for this molecule, please: CCN(CC)CCCC(C)Nc1c2ccc(C)cc2nc2ccc(OC)cc12 (stereo not drawn)
n

Test call for this molecule, please: `COc1cc(S(C)(=O)=O)ccc1Nc1nc2ccc(-c3ccc(NC(=O)[C@H](C)c4ccc(F)cc4)cc3)cn2n1`
n

Test call for this molecule, please: CCOc1c(Cl)cc(CNC(C)C(O)c2ccccc2)cc1OC (stereo not drawn)
n

Test call for this molecule, please: `O=C([CH-]C(=O)C(F)(F)F)c1ccccc1.O=C([CH-]C(=O)C(F)(F)F)c1ccccc1.O=C([CH-]C(=O)C(F)(F)F)c1ccccc1.O=C([CH-]C(=O)C(F)(F)F)c1ccccc1.[Eu+3].c1ccncc1`
n
